Assay Protocol: Cell Viability - BJ (AID 421);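 further: potency means the concentration at half of the fitted maximal effect; cells exposed to compound for 40 hours at 37 °C before readout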
Reported Conditions: BJ fibroblast viability, qHTS
Records with an inconclusive call do not appear. Active and inactive are the calls of the source. The call rests on the fitted dose curve.
# valid calls are True for active, False for inactive; nothing else

**Q:** Recorded test outcome, item CN1CCC[C@H]1c1cccnc1
**A:** False

**Q:** What call does the record list for CN(C)c1ccc(N=NS(=O)(=O)O)cc1 ?
**A:** False

**Q:** Record request — test call for CN(C)c1ccc(C(=C2C=CC(=[N+](C)C)C=C2)c2ccccc2)cc1
**A:** True

**Q:** Status in this test for c1ccc2sc(SSc3nc4ccccc4s3)nc2c1 ?
**A:** False

**Q:** Please let me know the test result on file for S=c1[nH]c2ccccc2s1 .
**A:** False

**Q:** Record lookup: outcome of this test for C#C[C@]1(O)CC[C@H]2[C@@H]3CCc4cc(O)ccc4[C@H]3CC[C@@]21C ?
**A:** False

**Q:** What was the test verdict on CN(C)CCC(c1ccc(Cl)cc1)c1ccccn1 (configuration not stated) ?
**A:** False

**Q:** Would you mind telling me which call this test gave CC(C)NCC(O)COc1cccc2ccccc12 (configuration not stated) ?
**A:** False

**Q:** Could you check what this test reported for O=C1CN(/N=C/c2ccc([N+](=O)[O-])o2)C(=O)N1 ?
**A:** False

**Q:** Per the assay record, what outcome was assigned to N=C1N=C(N)c2cc3ccccc3cc21 ?
**A:** True

**Q:** Could you please tell me the result logged for O=C(O)/C=C\C(=O)O in this assay?
**A:** False

**Q:** Can you look up the reported call for CC1(C)S[C@@H]2[C@H](NC(=O)[C@H](N)c3ccccc3)C(=O)N2[C@H]1C(=O)O for me?
**A:** False

###

Assay Protocol: Cell Viability - LYMP2-020 (AID 986);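 further: cells exposed to compound for 24 h at 37 °C; nearly all actives have a fitted effect of over 55% in size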; further: potency means the concentration at half of the fitted maximal effect
Reported Conditions: series mostly up to 92.2 µM
Records with an inconclusive call do not appear. Calls of active or inactive are those of the source. The call rests on the fitted dose curve; in most records, active means well fitted cell-killing curve with a large enough effect; inconclusive means small, poorly fitted or top-dose-only effect; inactive means flat fitted curve, though single readings scatter.
Attribute Measured: Potency

Solved entries:
Compound | Potency
c1ccc2sc(SSc3nc4ccccc4s3)nc2c1 | inactive
CN(C)c1ccc(N=NS(=O)(=O)O)cc1 | inactive
NCCO | inactive
O=c1cc(-c2ccccc2)oc2ccccc12 | inactive

**Q:** Recorded Potency for COc1cc(/C=C/C(=O)CC(=O)/C=C/c2ccc(O)c(OC)c2)ccc1O , please?
**A:** 31.6 µM (active)

**Q:** Quick check: Potency of O=C(O)c1cc(O)c(O)c(O)c1 ?
**A:** inactive

**Q:** What value of Potency has been reported for the following compound? CCCCCCCCCCCCCCCCCC(=O)O
**A:** inactive

**Q:** Could you tell me which Potency is on file for Nc1nc2ccc([N+](=O)[O-])cc2s1 ?
**A:** inactive

**Q:** Look at this compound and give its reported Potency. COc1cc(CNC(=O)CCCC/C=C/C(C)C)ccc1O
**A:** inactive

**Q:** Please look up its Potency: CN1CCC[C@H]1c1cccnc1
**A:** inactive

**Q:** Look up Potency: CN(C)CCC(c1ccc(Cl)cc1)c1ccccn1 (stereo not drawn)
**A:** inactive

**Q:** I'd like to know its Potency. The compound in question is CC1(C)S[C@@H]2[C@H](NC(=O)[C@H](N)c3ccccc3)C(=O)N2[C@H]1C(=O)O
**A:** inactive

**Q:** For O=C1CN(/N=C/c2ccc([N+](=O)[O-])o2)C(=O)N1 , what is its reported Potency?
**A:** inactive

###

Assay Protocol: Natriuretic polypeptide receptor (hNpr1) antagonism - Pilot counterscreen GloSensor control cell line (AID 1347045)
Reported Conditions: HEK293 cGMP GloSensor cells, SNP-stimulated luminescence, 20 min; series mostly up to 38.3 µM
Results filed as inconclusive are left out. Activity calls are given as the source filed them. Calls follow the shape of the full dose curve.
Returns: one label drawn from True = active, False = inactive

Record excerpt, results attached:
Molecule | Answer Label
CN1CCc2cccc3c2C1Cc1ccc(O)c(O)c1-3 (centres undefined) | False
O=C1/C(=C/c2ccsc2)CC/C1=C\c1cccs1 | True
CNC(=O)[C@H]1O[C@@H](n2cnc3c(NCc4cccc(I)c4)ncnc32)[C@H](O)[C@@H]1O | False
O=[N+]([O-])c1ccc2c(c1)S(=O)(=O)C=C2 | True
CC(C)ON([C@@H](C(=O)NO)C(C)C)S(=O)(=O)c1ccc(-c2ccccc2)cc1 | False
CCCCCCCCCCCCCCCC(=O)NCC(COP(=O)([O-])OCC[N+](C)(C)C)OCC (centres undefined) | False
Cc1nc2sccn2c(=O)c1CCN1CCC(=C(c2ccccc2)c2ccc(F)cc2)CC1 | False
Nc1nc(Cl)nc2c1ncn2[C@@H]1O[C@H](COP(=O)(O)OP(=O)(O)OP(=O)(O)O)[C@@H](O)[C@H]1O | False

Consider now this further molecule.
**Q:** Please state the recorded outcome for this molecule: CCOC(=O)N1CCN(/[N+]([O-])=N/Oc2ccc([N+](=O)[O-])cc2[N+](=O)[O-])CC1
**A:** True

###

Target Desc: Atrial natriuretic peptide receptor 2 (Homo sapiens)
Assay Protocol: Natriuretic polypeptide receptor (hNpr2) antagonism - Pilot subtype selectivity assay (AID 1347050)
Reported Conditions: NPR2-expressing cells, cGMP antagonist-mode read-out; series mostly up to 38.3 µM
Results filed as inconclusive are left out. Active and inactive are the calls of the source. Calls follow the shape of the full dose curve.
Form entry, call: pick from active, inactive

Compound | Answer Label
O=c1[nH]c2cc([N+](=O)[O-])c([N+](=O)[O-])cc2[nH]c1=O | inactive
CN1CCc2cc(O)c(O)cc2C(c2ccccc2)C1 (stereo not given) | inactive
CCCCCCCCc1ccc(-c2ccc(C(=O)O)cc2)cc1 | inactive
CCOC(=O)N1CCN(/[N+]([O-])=N/Oc2ccc([N+](=O)[O-])cc2[N+](=O)[O-])CC1 | active
O=C(Nc1cccc(C(=O)Nc2ccc(S(=O)(=O)O)c3cc(S(=O)(=O)O)cc(S(=O)(=O)O)c23)c1)Nc1cccc(C(=O)Nc2ccc(S(=O)(=O)O)c3cc(S(=O)(=O)O)cc(S(=O)(=O)O)c23)c1 | inactive
OCC1O[C@H]([S-])[C@H](O)[C@@H](O)[C@@H]1O.[Au+] (stereo not given in full) | inactive

**Q:** Just curious, what result did CN1CCc2cccc3c2C1Cc1ccc(O)c(O)c1-3 (stereo not given) get here?
**A:** inactive

**Q:** Just curious, what result did CN(C)c1ccc(/C=C2\C(=O)Nc3ccccc32)cc1 get here?
**A:** active

**Q:** Name the outcome recorded for OC[C@H]1O[C@@H](n2cnc3c(NC4CCCCC4)ncnc32)[C@H](O)[C@@H]1O in the assay.
**A:** inactive

**Q:** Tell me the recorded outcome of this test for O=C(O)CNC(=O)C(CS)Cc1ccccc1 (stereo not given) .
**A:** inactive

###

Assay Protocol: qHTS of pediatric cancer cell lines to identify multiple opportunities for drug repurposing: Confirmatory screen for LAN-5 cells (AID 1347113); further: nearly all actives have a fitted effect of over 65% in size
Reported Conditions: LAN-5 neuroblastoma cell viability; series mostly up to 95.5 µM
Records with an inconclusive call do not appear. The source made the active and inactive calls. Calls come from the whole dose curve; as a rule, active = well fitted cell-killing curve with a large enough effect; inconclusive = small, poorly fitted or top-dose-only effect, or effect the other way; inactive = no such curve, though single readings can be large or run the other way.
API: response.call in TRUE = active, FALSE = inactive

Worked examples, 2 compounds total:
Compound String | Answer Label
Oc1c(Br)cc(Br)c2cccnc12 | TRUE
Nc1ccc([N+](=O)[O-])cc1O | FALSE

**Q:** What did this assay record as the result for [O-][n+]1ccccc1SSc1cccc[n+]1[O-] ?
**A:** TRUE

**Q:** Which outcome was assigned to CN(C)c1ccc(C(=C2C=CC(=[N+](C)C)C=C2)c2ccccc2)cc1 in this test?
**A:** TRUE

###

Target Desc: N-terminal Xaa-Pro-Lys N-methyltransferase 1 (Homo sapiens)
Assay Protocol: qHTS Assay for Inhibitors of N-terminal methyltransferase 1 (NTMT1): LOPAC validation of the NTMT1 SAHH-coupled ThioGlo3 Assay (AID 1347143);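 further: SAH from peptide methylation measured as thiol fluorescence via SAHH coupling and ThioGlo3; nearly all actives have a fitted effect of over 70% in size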; further: potency means the concentration at half of the fitted maximal effect
Reported Conditions: recombinant NTMT1, SAHH-coupled ThioGlo3 fluorescence; series mostly up to 114 µM
Inconclusive results are not listed. Calls of active or inactive are those of the source. The call rests on the fitted dose curve; in most records, active means well fitted inhibition curve with a large enough effect; inconclusive means small, poorly fitted or top-dose-only effect; inactive means no such curve, though single readings can be large or run the other way.
Attribute Measured: Potency

Compound | Target Desc | Value
O=c1cc(-c2ccccc2)oc2c(O)c(O)ccc12 | N-terminal Xaa-Pro-Lys N-methyltransferase 1 (Homo sapiens) | 56.2 µM (active)
CO/N=C(\C(=O)N[C@@H]1C(=O)N2C(C(=O)O)=C(COC(C)=O)CS[C@H]12)c1csc(N)n1 (stereo in doubt) | N-terminal Xaa-Pro-Lys N-methyltransferase 1 (Homo sapiens) | inactive
COc1cc2c(CCNC(C)=O)c[nH]c2cc1Cl | N-terminal Xaa-Pro-Lys N-methyltransferase 1 (Homo sapiens) | inactive
N#C/C(=C\c1ccc(-c2cc(Cl)ccc2Cl)o1)C(=O)Nc1cccc2ncccc12 | N-terminal Xaa-Pro-Lys N-methyltransferase 1 (Homo sapiens) | 56.2 µM (active)
COC(=O)c1c(C)[nH]c(C)c1C(=O)c1ccccc1Cc1ccccc1 | N-terminal Xaa-Pro-Lys N-methyltransferase 1 (Homo sapiens) | inactive

**Q:** Return reported Potency; argument: c1ccc(-c2ccccn2)nc1
**A:** inactive

**Q:** Name the recorded Potency for COc1ccc2c(c1)CCC1C2CC[C@@]2(C)C1CC[C@@H]2NCCCCCCN1C(=O)CCC1=O (stereo partly drawn) .
**A:** inactive

**Q:** Fill in the blank: the reported Potency of CC(=O)/C=C1\C(=O)N(C)c2ccccc21 is ____.
**A:** 28.2 µM (active)

**Q:** Given the compound CNCC[C@H](Oc1ccc(C(F)(F)F)cc1)c1ccccc1 , what is its reported Potency?
**A:** inactive

**Q:** Suppose we examine the compound O=C(O)CNC(=O)C(CS)Cc1ccccc1 (stereo not drawn) ; what Potency value has been reported?
**A:** inactive

**Q:** Which Potency value is on record for CN1CCc2cccc3c2C1Cc1ccc(O)c(O)c1-3 (stereo not drawn) ?
**A:** 20 µM (active)

**Q:** Name the reported Potency value associated with the compound COc1cccc(C(=O)NCCN2CCN(c3ccc(Cl)cc3)CC2)c1
**A:** inactive

**Q:** Requested read-out: Potency. Entry: CCNC(=O)[C@H]1O[C@@H](n2cnc3c(N)nc(NCCc4ccc(CCC(=O)O)cc4)nc32)[C@H](O)C1O (stereo partly drawn)
**A:** inactive

**Q:** For the compound shown here, Nc1ncnc2c1ncn2[C@@H]1O[C@H](CO)C(O)[C@H]1O (stereo partly drawn) , give the reported Potency.
**A:** 2.24 µM (active)

The origin of these recorded values is PubChem BioAssay (NCATS).
